Just for reference, patent US20130330754A1 is where these values come from.

Kindly supply the reported limits of detection (LODs) values for the records listed here.
Target: β-galactosidase (B-GAL) (Escherichia coli)
Experiment: B-GAL inhibition by heavy metals on bioactive paper sensor (CPRG colour intensity)
Format: biochemical, E. coli
Details: paper sensor, 10 min incubation with metal, B-GAL/CPRG assay

smilesRecord	systemName	limits of detection (LODs)
O=[N+]([O-])[O-].[Ag+]	β-galactosidase (B-GAL) (Escherichia coli)	~0.002 ppm
O=S(=O)([O-])[O-].[Cu+2]	β-galactosidase (B-GAL) (Escherichia coli)	~0.020 ppm
[Cl][Cd][Cl]	β-galactosidase (B-GAL) (Escherichia coli)	~0.020 ppm

Please report limits of detection (LODs) for every entry that follows.
1. [Ni+2]
2. [Pb+2]

Outgoing:
1. ~0.230 ppm
2. ~0.140 ppm

----------
Target: β-galactosidase (B-GAL) (Escherichia coli, UniProt P00722)
Sequence (P00722 2-1024): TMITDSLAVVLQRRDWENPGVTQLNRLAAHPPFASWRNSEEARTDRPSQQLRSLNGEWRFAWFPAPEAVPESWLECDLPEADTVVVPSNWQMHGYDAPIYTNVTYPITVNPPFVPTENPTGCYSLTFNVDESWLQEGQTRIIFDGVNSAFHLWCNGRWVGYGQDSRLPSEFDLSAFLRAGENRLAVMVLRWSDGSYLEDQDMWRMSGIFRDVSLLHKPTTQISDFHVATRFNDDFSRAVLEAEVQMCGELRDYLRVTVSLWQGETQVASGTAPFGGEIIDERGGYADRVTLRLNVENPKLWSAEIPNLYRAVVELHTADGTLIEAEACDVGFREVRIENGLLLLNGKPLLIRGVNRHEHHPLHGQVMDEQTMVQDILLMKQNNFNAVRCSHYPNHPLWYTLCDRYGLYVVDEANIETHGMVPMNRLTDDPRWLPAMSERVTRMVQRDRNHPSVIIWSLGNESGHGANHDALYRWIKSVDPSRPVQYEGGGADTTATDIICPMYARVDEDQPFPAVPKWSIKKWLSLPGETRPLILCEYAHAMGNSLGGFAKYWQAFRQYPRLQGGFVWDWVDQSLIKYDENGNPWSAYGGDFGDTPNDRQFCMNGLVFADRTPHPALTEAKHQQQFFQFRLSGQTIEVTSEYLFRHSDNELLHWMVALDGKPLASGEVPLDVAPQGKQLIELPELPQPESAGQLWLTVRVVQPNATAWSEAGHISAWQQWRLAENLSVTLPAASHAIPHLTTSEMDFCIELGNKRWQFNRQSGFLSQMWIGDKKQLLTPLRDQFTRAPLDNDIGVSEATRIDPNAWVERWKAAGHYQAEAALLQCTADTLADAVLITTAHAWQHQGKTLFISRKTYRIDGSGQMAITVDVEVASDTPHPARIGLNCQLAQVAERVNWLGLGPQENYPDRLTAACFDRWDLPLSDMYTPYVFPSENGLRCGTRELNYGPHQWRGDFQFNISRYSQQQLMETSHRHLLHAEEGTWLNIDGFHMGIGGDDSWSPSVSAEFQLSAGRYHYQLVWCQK
measuredMetric: IC50

Consider [Cl][Hg][Cl] [Hg(II), HgCl2] . Its measured IC50 is 0.12 µM

----------
Task for the reader: assign each of the following molecules its reported IC50 values (concentration to obtain 50% inhibition of B-GAL).
Target: β-galactosidase (B-GAL) (Escherichia coli, UniProt P00722)
Experiment: B-GAL inhibition by heavy metals on bioactive paper sensor (CPRG colour intensity)
Format: biochemical, E. coli
Conditions: paper sensor, 10 min incubation with metal
Method: The sensors were constructed based on an enzyme, B-GAL vs. substrate, CPRG system with three design strategies: a one-dimensional strategy and two flower shape strategies. […] The sensing zones for all cases were incubated with a drop of contaminated sample for 10 min. […] The color intensity was monitored after 5 min air drying at room temperature. […]

smilesRecord	measuredValue
O=S(=O)([O-])[O-].[Cu+2]	0.70 ppm
[Cl][Cd][Cl]	1.14 ppm
[Pb+2]	1.40 ppm
O=[N+]([O-])[O-].[Ag+]	0.05 ppm
[Ni+2]	1.80 ppm

// next entry
Memo: `[Cl][Hg][Cl]` , reported IC50 values (concentration to obtain 50% inhibition of B-GAL): 0.03 ppm
